experimental system: hHGF-Fc G555E (recombinant hHGF protein containing a glycine to glutamate substitution at position 555) (human)
Sequence (chain, as listed by the source G555E G555E limits assumed): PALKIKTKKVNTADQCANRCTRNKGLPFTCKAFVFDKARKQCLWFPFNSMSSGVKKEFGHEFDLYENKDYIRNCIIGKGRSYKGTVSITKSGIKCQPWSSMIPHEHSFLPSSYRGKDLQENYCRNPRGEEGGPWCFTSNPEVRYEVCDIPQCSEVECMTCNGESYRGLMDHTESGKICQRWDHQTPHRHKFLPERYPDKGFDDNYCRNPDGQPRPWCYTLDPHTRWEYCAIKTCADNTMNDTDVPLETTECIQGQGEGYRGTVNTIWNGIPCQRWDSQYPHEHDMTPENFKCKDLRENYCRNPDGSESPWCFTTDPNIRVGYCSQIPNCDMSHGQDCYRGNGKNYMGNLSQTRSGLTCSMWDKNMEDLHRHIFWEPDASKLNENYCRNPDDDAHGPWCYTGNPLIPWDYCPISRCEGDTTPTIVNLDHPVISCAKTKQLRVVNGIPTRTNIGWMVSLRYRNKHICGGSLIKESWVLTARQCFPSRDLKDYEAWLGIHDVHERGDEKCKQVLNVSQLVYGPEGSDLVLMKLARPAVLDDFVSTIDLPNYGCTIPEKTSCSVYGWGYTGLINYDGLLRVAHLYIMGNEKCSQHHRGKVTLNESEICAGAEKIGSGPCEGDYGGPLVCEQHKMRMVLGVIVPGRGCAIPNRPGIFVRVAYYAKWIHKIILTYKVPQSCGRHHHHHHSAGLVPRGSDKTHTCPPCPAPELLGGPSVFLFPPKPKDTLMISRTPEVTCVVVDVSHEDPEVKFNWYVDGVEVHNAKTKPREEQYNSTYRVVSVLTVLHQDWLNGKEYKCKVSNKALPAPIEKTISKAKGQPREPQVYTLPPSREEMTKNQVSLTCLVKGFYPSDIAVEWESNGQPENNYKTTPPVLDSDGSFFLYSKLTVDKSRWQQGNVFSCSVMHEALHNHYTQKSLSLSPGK
experiment description: SPR, antibody immobilized, HGF protein injected, 25 C
observed property: binding result

| binder | observed property | result |
| --- | --- | --- |
| anti-hHGF monoclonal antibody 3A12 (antibody, mouse IgG1, kappa, V domains shown, Murine IgG1 kappa from hybridoma) VH: EVQLVESGGGLVQPGGSLKISCAASGFTFSNYFMSWVRQTPEKRLEWVAYISSGGGSTYYPDSVKGRFTISRDNAKNTLYLQMNSLKSEDTAMYYCVRQGDGYYGDYAMDYWGQGTSVTVSS VL: DIQMTQSPASLSVSVGETVTITCRASENIYINLAWYQQKQGKSPQLLVHAATKLADGVPSRFSGSGSGTQYSLKINSLQSEDFGSYYCQHFWGTPYTFGGGTKLEIKR | binding result | binds |
